These entries and their values trace back to patent US11524958B2.

# Tested System: CRTH2 receptor (Homo sapiens)
# Construct: host or cells: CHO-K1 (PathHunter β-arrestin line)
# Test Name: PathHunter CHO-K1 CRTH2 β-arrestin assay (DiscoverX), antagonism of PGD2
# Assay type: cell-based
# Condition Set: PathHunter CHO-K1 CRTH2 β-arrestin cells; compound 30 min, then EC80 agonist (PGD2) 90 min, 37° C.; chemiluminescent signal
# Method: DiscoverX Corporation in the U.S was entrusted to complete this experiment by β-arrestin assay. […] Measured signals were generated by one-time addition of 15 μL (50% v/v) of PathHunter detection mixture reagent and subsequent one-hour incubation. The microplate was read through the chemiluminescent signals of PerkinElmer Envision™ reader. Biological activity of the test compound was analyzed by CBIS data analysis suite (ChemInnovation, CA), and was denoted as IC50 value.
Recorded IC50 values for a group of molecules are listed next.

INSERT INTO assay_data (molecule, endpoint_label, result) VALUES
  ('CS(=O)(=O)c1ccc(Cc2c3ccccc3n3cc(C(=O)O)ncc23)cn1', 'IC50', '> 1000 nM');

Please provide the recorded IC50 for CC1(C(=O)O)CCc2c(Cc3ccc(S(C)(=O)=O)cc3F)c3ccccc3n2C1 (stereo not drawn) , tested on CRTH2 receptor (Homo sapiens).
> 1000 nM

// next record CS(=O)(=O)c1ccc(Cc2c3n(c4ccccc24)C(CC(=O)O)CCC3)c(C(F)(F)F)c1 (stereo not drawn)
> 1000 nM

====

# Tested System: CRTH2 receptor (Homo sapiens, UniProt Q9Y5Y4)
# Sequence (Q9Y5Y4 1-395): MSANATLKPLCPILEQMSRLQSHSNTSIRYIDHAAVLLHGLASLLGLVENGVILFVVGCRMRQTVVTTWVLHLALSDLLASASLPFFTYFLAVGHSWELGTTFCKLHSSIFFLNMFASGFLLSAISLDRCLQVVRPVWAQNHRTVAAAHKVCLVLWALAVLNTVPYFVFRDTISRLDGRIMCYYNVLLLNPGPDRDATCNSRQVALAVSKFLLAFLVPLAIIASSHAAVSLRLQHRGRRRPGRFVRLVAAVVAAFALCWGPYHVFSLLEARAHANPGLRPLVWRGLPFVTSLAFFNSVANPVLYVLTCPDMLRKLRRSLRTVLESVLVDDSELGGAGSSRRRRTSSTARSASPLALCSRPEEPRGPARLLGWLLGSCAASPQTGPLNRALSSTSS
# Test Name: PathHunter CHO-K1 CRTH2 β-arrestin assay (DiscoverX), antagonism of PGD2
# Condition Set: PathHunter CHO-K1 CRTH2 β-arrestin cells; compound 30 min, then EC80 agonist (PGD2) 90 min, 37° C.; chemiluminescent signal
pIC50: −log10 of the molar value.
Endpoint Label: pIC50

Reference set (5 entries):
INSERT INTO assay_data (compound, result) VALUES
  ('CS(=O)(=O)c1ccc(Cc2c3n(c4ccc(OC(F)F)cc24)CC(C(=O)O)CC3)c(C(F)(F)F)c1 (stereo not drawn)', '> 7.00'),
  ('CC1(C(=O)O)CCc2c(Cc3ccc(S(C)(=O)=O)cc3C(F)(F)F)c3ccccc3n2C1 (stereo not drawn)', '< 6.00'),
  ('CS(=O)(=O)c1ccc(Cc2c3n(c4ccc(Cl)cc24)CC(C(=O)O)CC3)c(C(F)(F)F)c1 (stereo not drawn) [Example 22]', '> 7.00'),
  ('CS(=O)(=O)c1ccc(Cc2c3n(c4ccccc24)CC(C(=O)O)CC3)cn1 (stereo not drawn)', '< 6.00'),
  ('COc1ccc2c(c1)c(Cc1ccc(S(C)(=O)=O)cc1C(F)(F)F)c1n2CC(C(=O)O)CC1 (stereo not drawn)', '> 7.00');

Please provide the recorded pIC50 for CS(=O)(=O)c1ccc(Cc2c3n(c4ccccc24)C(C(=O)O)CCC3)c(C(F)(F)F)c1 (stereo not drawn) , tested on CRTH2 receptor (Homo sapiens, UniProt Q9Y5Y4).
6.00 to 7.00

// next record O=C(O)C1CCc2c(Cc3cc4c(cc3C(F)(F)F)S(=O)(=O)CC4)c3cc(F)ccc3n2C1 (stereo not drawn)
< 6.00

// next record CS(=O)(=O)c1ccc(Cc2c3n(c4ccccc24)CC(C(=O)O)CC3)c(C(F)(F)F)c1 (single isomer, unassigned) [Example 16 peak1]
< 6.00

// next record CS(=O)(=O)c1ccc(Cc2c3n(c4ccccc24)CC(C(=O)O)CC3)c(C(F)(F)F)c1 (single isomer, unassigned) [Example 16 peak2]
> 7.00
